Documented MIC across a set of compounds
System: Staphylococcus epidermidis
assay: Antibacterial activity against methicillin-sensitive Staphylococcus epidermidis 09-6 after 18 to 24 hrs by twofold serial dilution method
Assay type: functional
Form entry: value (µg/mL) — number only.

Request: MIC, test system Staphylococcus epidermidis, entry CCO/N=C1\CN(c2c(F)cc3c(=O)c(C(=O)O)cn(C4CC4)c3c2OC)CC1/C(N)=N\O (stereo unspecified)
Response: 0.25

Request: Do the same for CCO/N=C(/N)C1CN(c2c(F)cc3c(=O)c(C(=O)O)cn(C4CC4)c3c2F)C/C1=N\OC (stereo unspecified) please
Response: 0.06

Request: Consider next the compound CCO/N=C1\CN(c2c(F)cc3c(=O)c(C(=O)O)cn(C4CC4)c3c2OC(F)F)CC1/C(N)=N\OC (stereo unspecified) in the same way.
Response: 0.25

Request: Now this one: CCO/N=C1\CN(c2c(F)cc3c(=O)c(C(=O)O)cn(CCF)c3c2F)CC1/C(N)=N\OC (stereo unspecified)
Response: 0.25

Request: Try the compound CCO/N=C1\CN(c2c(F)cc3c(=O)c(C(=O)O)cn(C4CC4)c3c2OC(F)F)CC1/C(N)=N\O (stereo unspecified)
Response: 0.25

Taken from ChEMBL document CHEMBL1287651.
